# METHOD: qHTS assay to identify small molecule antagonists of the peroxisome proliferator-activated receptor gamma (PPARg) signaling pathway - cell viability counter screen (AID 743194); further: nearly all actives have a fitted effect of over 55% in size
# CONDITION_SET: PPARg-bla HEK293H viability, CellTiter-Glo luminescence, 17 h, co-treated with 50 nM rosiglitazone; series mostly up to 62.6 µM
Inconclusive results are not listed. The source made the active and inactive calls. The call rests on the fitted dose curve; in most records, active means well fitted cell-killing curve with a large enough effect in the repeat runs; inconclusive means weak or mixed curves, or effect the other way; inactive means no such curve, though single readings can be large or run the other way.
Write down one outcome, taken from active, inactive

Solved cases (6 shown):
| COMPOUND | ANSWER_LABEL |
| --- | --- |
| C=CC(=O)Nc1cc2c(Nc3ccc(F)c(Cl)c3)ncnc2cc1OCCCN1CCOCC1 | active |
| CC1=Nc2ccccc2C1(C)C | inactive |
| CC(C(=O)O)c1ccc2c(c1)[nH]c1ccc(Cl)cc12 (configuration not stated) | inactive |
| CCC(=O)OC(=O)CC | inactive |
| CCCCC(CC)COC(=O)CCCCC(=O)OCc1ccccc1 (configuration not stated) | inactive |
| COc1ccc2c(c1)c(CC(=O)OC/C=C(\C)CC/C=C(\C)CCC=C(C)C)c(C)n2C(=O)c1ccc(Cl)cc1 | inactive |

# ---- query compound ----
Problem: Status in this test for `CCCCCCCC` ?
Solution: inactive

====

# METHOD: A CellTox Green Cytotoxicity Assay to monitor cytotoxicity in HEK293 cells - 16 hour (AID 1224888); further: nearly all actives have a fitted effect of over 35% in size
# CONDITION_SET: CellTox Green fluorescence; series mostly up to 76.8 µM
Results filed as inconclusive are left out. The source made the active and inactive calls. Calls follow the shape of the dose curve; as a rule, active = well fitted activation curve with a large enough effect in the repeat runs; inconclusive = weak or mixed curves; inactive = flat fitted curve, though single readings scatter.
Write down one outcome, taken from true = active, false = inactive

| MOLECULE | ANSWER_LABEL |
| --- | --- |
| CCCCCCCC/C=C\CCCCCCCCN | true |
| OC/C=C/CO | false |
| C=C(CC)C(=O)c1ccc(OCC(=O)O)c(Cl)c1Cl | false |

Problem: Status in this test for `CCC(CC)(CC(=O)Nc1cccc(/C=C/c2nc(C3CCC3)cs2)c1)C(=O)O` ?
Solution: false

Problem: Status in this test for `Cc1cccc(C(=O)O)c1O` ?
Solution: false

Problem: Status in this test for `Clc1nnc(Cl)c2ccccc12` ?
Solution: false

Problem: Status in this test for `CCC(C)[O-].CCC(C)[O-].CCOC(=O)/C=C(/C)[O-].[Al+3]` ?
Solution: false

====

# METHOD: qHTS assay to identify small molecule antagonists of the peroxisome proliferator-activated receptor delta (PPARd) signaling pathway - cell viability counter screen (AID 743213); further: nearly all actives have a fitted effect of over 50% in size
# CONDITION_SET: PPARd-bla HEK293H viability, CellTiter-Glo luminescence, 17 h; series mostly up to 62 µM
Inconclusive results are not listed. The source made the active and inactive calls. Calls come from the whole dose curve; as a rule, active = well fitted cell-killing curve with a large enough effect in the repeat runs; inconclusive = weak or mixed curves; inactive = no such curve, though single readings can be large or run the other way.
Write down one outcome, taken from 1.0 = active, 0.0 = inactive

Solved cases (3 shown):
| COMPOUND | ANSWER_LABEL |
| --- | --- |
| C=C(CC)C(=O)c1ccc(OCC(=O)O)c(Cl)c1Cl | 0.0 |
| CC1(C)CC(O)CC(C)(C)N1 | 0.0 |
| CCC(C)[O-].CCC(C)[O-].CCOC(=O)/C=C(/C)[O-].[Al+3] | 0.0 |

Problem: Status in this test for `CC/C=C\CCCCCO` ?
Solution: 0.0

Problem: Status in this test for CC(N=C(NC#N)Nc1ccncc1)C(C)(C)C (stereo not drawn) ?
Solution: 0.0

Problem: Status in this test for CC(C(=O)O)c1ccc2c(c1)[nH]c1ccc(Cl)cc12 (stereo not drawn) ?
Solution: 0.0
